Where these numbers come from: patent US9751869B2

EC50 values, listed per item
- Measurement target: LXRβ (Homo sapiens)
- Construct: Co-transfection expression plasmids, comprising full-length LXRα (pCMX-h LXRα or LXRβ (pCMX-hLXRβ))
- Method summary: LXR/LXRE co-transfection assay (luciferase reporter) in CV-1 cells, LXRβ
- Condition label: CV-1 cells transfected with pCMX-hLXRβ and LXREx1-Tk-Luciferase, 20 hours incubation, read-out: LXRbeta agonism EC50
Measure: EC50 (nM)

{"columns": ["Compound", "Measurement target", "Measure", "Value units", "Reading"],
 "data": [
  ["Cc1nc(-c2ccc(OC(F)F)c(F)c2)c(-c2cc(-c3cc(F)c(CO)c(S(C)(=O)=O)c3)ccc2-n2cc(Cl)c(C(F)(F)F)n2)o1 [Example 434]", "LXRβ (Homo sapiens)", "EC50", "nM", 13],
  ["Cc1nc(-c2ccc(OC(F)(F)F)cc2)c(-c2cc(-c3cc(F)c(CO)c(S(C)(=O)=O)c3)ccc2-n2ccc(C3CC3)n2)o1 [Example 315]", "LXRβ (Homo sapiens)", "EC50", "nM", 70],
  ["Cc1nc(-c2ccc(OC(F)F)c(F)c2)c(-c2cc(-c3cccc(S(C)(=O)=O)c3)ccc2-c2cc(C(F)(F)C(N)=O)nn2C)o1 [Example 72]", "LXRβ (Homo sapiens)", "EC50", "nM", 73]
]}

----------
- Measurement target: LXRβ (Homo sapiens)
- Construct: Co-transfection expression plasmids, comprising full-length LXRα (pCMX-h LXRα or LXRβ (pCMX-hLXRβ)); expressed in transfected cells; host or cells: CV-1 African green monkey kidney cells, transient transfection with pCMX-hLXRβ
- Sequence (P55055 1-460): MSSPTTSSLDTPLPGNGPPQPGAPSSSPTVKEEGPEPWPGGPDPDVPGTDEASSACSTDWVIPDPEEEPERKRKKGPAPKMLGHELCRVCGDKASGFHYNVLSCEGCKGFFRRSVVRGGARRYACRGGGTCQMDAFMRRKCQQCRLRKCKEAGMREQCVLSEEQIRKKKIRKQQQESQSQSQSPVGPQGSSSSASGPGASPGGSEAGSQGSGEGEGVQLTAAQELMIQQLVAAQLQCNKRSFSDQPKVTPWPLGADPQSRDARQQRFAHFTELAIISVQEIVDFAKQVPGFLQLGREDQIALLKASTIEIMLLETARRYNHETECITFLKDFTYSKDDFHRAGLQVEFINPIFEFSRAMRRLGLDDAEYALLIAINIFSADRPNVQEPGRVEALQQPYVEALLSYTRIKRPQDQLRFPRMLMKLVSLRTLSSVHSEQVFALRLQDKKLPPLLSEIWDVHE
- Sequence (P19793 1-462 partner): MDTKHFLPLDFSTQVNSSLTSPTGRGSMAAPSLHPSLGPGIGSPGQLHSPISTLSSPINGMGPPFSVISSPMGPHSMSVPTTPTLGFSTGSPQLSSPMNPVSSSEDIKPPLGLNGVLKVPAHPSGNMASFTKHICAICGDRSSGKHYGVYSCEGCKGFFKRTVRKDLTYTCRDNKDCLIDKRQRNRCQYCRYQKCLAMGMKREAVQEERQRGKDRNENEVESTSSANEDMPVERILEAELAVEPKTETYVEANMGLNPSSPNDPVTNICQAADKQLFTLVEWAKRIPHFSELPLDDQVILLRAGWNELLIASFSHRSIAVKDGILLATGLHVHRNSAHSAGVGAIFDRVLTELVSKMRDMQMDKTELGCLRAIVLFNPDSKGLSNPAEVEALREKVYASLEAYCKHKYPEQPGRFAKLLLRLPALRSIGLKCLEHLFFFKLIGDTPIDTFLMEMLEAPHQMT
- Method summary: LXR/LXRE co-transfection assay (luciferase reporter) in CV-1 cells, LXRβ
- Type: cell-based
- Condition label: CV-1 cells transfected with pCMX-hLXRβ and LXREx1-Tk-Luciferase, 20 hours incubation, read-out: LXRbeta agonism EC50
pEC50: −log10 of the molar value.

{"columns": ["Molecule", "Measurement target", "pEC50"],
 "data": [
  ["Cc1cc(C(F)(F)F)nn1-c1ccc(-c2cccc(C(C)(C)C(N)=O)c2)cc1-n1nncc1-c1ccc(OC(F)(F)F)cc1 [Example 303]", "LXRβ (Homo sapiens)", 6.08],
  ["Cc1nc(-c2ccc(OC(F)F)cc2)c(-c2cc(-c3cc(F)c(CO)c(S(C)(=O)=O)c3)ccc2-n2nc(C(F)(F)F)cc2C)o1 [Example 325]", "LXRβ (Homo sapiens)", 7.92],
  ["Cc1nc(-c2ccc3c(c2)OC(F)(F)O3)c(-c2cc(-c3cccc(S(C)(=O)=O)c3)ccc2-c2cc(C(=O)NC3CC3)nn2C)o1 [Example 107]", "LXRβ (Homo sapiens)", 5.90]
]}

----------
- Measurement target: LXRβ (Homo sapiens, UniProt P55055)
- Construct: Co-transfection expression plasmids, comprising full-length LXRα (pCMX-h LXRα or LXRβ (pCMX-hLXRβ)); expressed in transfected cells; host or cells: CV-1 African green monkey kidney cells, transient transfection with pCMX-hLXRβ
- Method summary: LXR/LXRE co-transfection assay (luciferase reporter) in CV-1 cells, LXRβ
- Type: cell-based
- Condition label: CV-1 cells, relative to maximum response of high control N-(3-((4-fluorophenyl)-(naphthalene-2-sulfonyl)amino)propyl)-2,2-dimethylpropionamide, read-out: LXRbeta % EFFICACY
This section presents molecules with their documented Emax values.
Measure: Emax (%)

{"columns": ["Molecule", "Value units", "Reading"],
 "data": [
  ["Cn1nc(C(=O)NC(C)(C)C)cc1-c1ccc(-c2cccc(S(C)(=O)=O)c2)cc1-n1nncc1-c1ccc(OC(F)(F)F)cc1 [Example 40]", "%", 76],
  ["Cc1nc(-c2ccc(OC(F)(F)F)cc2)c(-c2cc(-c3cc(F)c(CO)c(S(C)(=O)=O)c3)ccc2-n2ccc(CC#N)n2)o1 [Example 370]", "%", 86],
  ["Cn1nc(C(F)(F)C(=O)NC(C)(C)CO)cc1-c1ccc(-c2cc(F)c(CO)c(S(C)(=O)=O)c2)cc1-n1nncc1-c1ccc(OC(F)(F)F)cc1 [Example 27]", "%", 111],
  ["Cc1nc(-c2ccc3c(c2)OC(F)(F)O3)c(-c2cc(-c3cc(F)c(CO)c(S(C)(=O)=O)c3)ccc2-c2cc(CC(N)=O)nn2C)o1 [Example 61]", "%", 40],
  ["Cc1nc(-c2ccc3c(c2)OC(F)(F)O3)c(-c2cc(-c3cc(F)c(CO)c(S(C)(=O)=O)c3)ccc2-c2cc(CO)nn2C)o1 [Example 99]", "%", 26],
  ["CNS(=O)(=O)c1cccc(-c2ccc(-c3cc(C(C)(F)F)nn3C)c(-n3nncc3-c3ccc(OC(F)(F)F)cc3)c2)c1 [Example 20]", "%", 86]
]}
